Data provenance: ChEMBL document CHEMBL3870313

experiment: in vitro; details: human, HepG2 cells
Description: Cytotoxicity against human HepG2 cells assessed as cell viability at 25 uM after 24 hrs by MTT assay
READOUT LABEL: viability at 24 h, 25 µM
Form field: result (number plus unit)

// known answers, use as guide
Nc1c2c(cc3c1C(c1ccc(F)cc1)c1c(-c4ccccc4)n[nH]c1O3)CCCC2 (stereo not drawn)
99.7%
Nc1c2c(nc3c1C(c1ccccc1)c1c(-c4ccco4)nn(-c4ccccc4)c1O3)CCCC2 (stereo not drawn)
85%

Q) Dear colleague, please send me the reported viability at 24 h, 25 µM for COc1ccc(C2c3c(-c4ccccc4)n[nH]c3Oc3cc4c(c(N)c32)CCCC4)cc1 (stereo not drawn) when you can.
A) 99.7%
